System: NCI-H1395
assayComment: relative viability (nuclei count vs DMSO), 5 days (fraction); higher = more cells survive
measurementContext: first compound 8 µM
# note: exactly 0.7 is not below, so it is false (0); use true (1) for relative viability strictly under it

Query :: Report whether reported relative viability is lower than 0.7 (strictly) for O=c1[nH]c2ccccc2n1C1CCN(CCCC(c2ccc(F)cc2)c2ccc(F)cc2)CC1 [Pimozide] + Cc1cc(Nc2cc(N3CCN(C)CC3)nc(Sc3ccc(NC(=O)C4CC4)cc3)n2)n[nH]1 [Tozasertib] (partner 0.1 µM)
Result :: true (1)

====

Tested on: NCI-H2009
assayComment: relative viability (nuclei count vs DMSO), 5 days (fraction); higher = more cells survive
measurementContext: first compound 0.0002 µM
measurementKind: relative viability
Numbers only.

Sample records with relative viability:
CC(=O)O[C@@]12CO[C@@H]1C[C@H](O)[C@@]1(C)C(=O)[C@H](O)C3=C(C)[C@@H](OC(=O)[C@H](O)[C@@H](NC(=O)OC(C)(C)C)c4ccccc4)C[C@@](O)([C@@H](OC(=O)c4ccccc4)[C@H]21)C3(C)C [Docetaxel] + CC1(C)CCC(c2ccc(Cl)cc2)=C(CN2CCN(c3ccc(C(=O)NS(=O)(=O)c4ccc(N[C@H](CCN5CCOCC5)CSc5ccccc5)c(S(=O)(=O)C(F)(F)F)c4)cc3)CC2)C1 [Navitoclax] (partner 0.5 µM) : 1.15
CC(=O)O[C@@]12CO[C@@H]1C[C@H](O)[C@@]1(C)C(=O)[C@H](O)C3=C(C)[C@@H](OC(=O)[C@H](O)[C@@H](NC(=O)OC(C)(C)C)c4ccccc4)C[C@@](O)([C@@H](OC(=O)c4ccccc4)[C@H]21)C3(C)C [Docetaxel] + C[C@]1(O)C[C@@H](c2nc(-c3ccc4ccc(-c5ccccc5)nc4c3)c3c(N)nccn32)C1 [Linsitinib] (partner 1 µM) : 1.15
CC(=O)O[C@@]12CO[C@@H]1C[C@H](O)[C@@]1(C)C(=O)[C@H](O)C3=C(C)[C@@H](OC(=O)[C@H](O)[C@@H](NC(=O)OC(C)(C)C)c4ccccc4)C[C@@](O)([C@@H](OC(=O)c4ccccc4)[C@H]21)C3(C)C [Docetaxel] + CS(=O)(=O)N1CCN(Cc2cc3nc(-c4cccc5[nH]ncc45)nc(N4CCOCC4)c3s2)CC1 [Pictilisib] (partner 1 µM) : 0.696

# ---- query molecule ----
Query :: Fill in relative viability for record CC(=O)O[C@@]12CO[C@@H]1C[C@H](O)[C@@]1(C)C(=O)[C@H](O)C3=C(C)[C@@H](OC(=O)[C@H](O)[C@@H](NC(=O)OC(C)(C)C)c4ccccc4)C[C@@](O)([C@@H](OC(=O)c4ccccc4)[C@H]21)C3(C)C [Docetaxel] + CC(C)C[C@H](NC(=O)[C@H](Cc1ccccc1)NC(=O)c1cnccn1)B(O)O [Bortezomib] (partner 0.002 µM)
Result :: 0.99

====

Test system: NCI-H441
assayComment: relative viability (nuclei count vs DMSO), 5 days (fraction); higher = more cells survive
measurementContext: first compound 0.1265 µM
Could you please report measured relative viability for the items listed next?
Numbers only.

Cc1sc2c(c1C)C(c1ccc(Cl)cc1)=N[C@@H](CC(=O)OC(C)(C)C)c1nnc(C)n1-2 [JQ1] + NC(=O)Nc1cc(-c2cccc(F)c2)sc1C(=O)N[C@H]1CCCNC1 [AZD7762] (partner 0.2 µM) : 1.16
Cc1sc2c(c1C)C(c1ccc(Cl)cc1)=N[C@@H](CC(=O)OC(C)(C)C)c1nnc(C)n1-2 [JQ1] + Cc1nc(NC(=O)N2CCC[C@H]2C(N)=O)sc1-c1ccnc(C(C)(C)C(F)(F)F)c1 [Alpelisib] (partner 2 µM) : 0.958

Could you tell me relative viability for each of these compounds? They are listed below.
1. Cc1sc2c(c1C)C(c1ccc(Cl)cc1)=N[C@@H](CC(=O)OC(C)(C)C)c1nnc(C)n1-2 [JQ1] + CS(=O)(=O)N1CCN(Cc2cc3nc(-c4cccc5[nH]ncc45)nc(N4CCOCC4)c3s2)CC1 [Pictilisib] (partner 1 µM)
2. Cc1sc2c(c1C)C(c1ccc(Cl)cc1)=N[C@@H](CC(=O)OC(C)(C)C)c1nnc(C)n1-2 [JQ1] + Cc1cc(Nc2cc(N3CCN(C)CC3)nc(Sc3ccc(NC(=O)C4CC4)cc3)n2)n[nH]1 [Tozasertib] (partner 0.1 µM)

Result ::
[0.561, 0.66]

Origin of the recorded values: the supplement of paper PMC10307832
